Test system: SN12C renal
Test: NCI-60 one-dose screen, 48 h (100 = growth as untreated, 0 = no growth, -100 = all killed)
Conditions: 10 µM unless noted
This is part of a sample that, as a whole, favours compounds with a hit. Of some 83,000 tested, about 20% had one in any assay.
attributeMeasured: growth (%)

| compound | assayedSystem | value |
| --- | --- | --- |
| Cc1cc(O)c(C2=NN(c3ccc(S(N)(=O)=O)cc3)C(c3ccccc3O)C2)cc1Cl (centres undefined) | SN12C renal | 15.1 |
| C=C1CC[C@H](C(C)C)[C@@H]2[C@H]1[C@H]1CC(=C)[C@@H](O)CC[C@@](C)(O)[C@@H]2O1 | SN12C renal | 109 |
| COc1ccc(C2NC(=O)C(C#N)c3c2sc2c(F)cccc32)c(OC)c1 (centres undefined) | SN12C renal | 73.8 |
| c1ccc(OCc2nnc(-c3ccc(Oc4ccccc4)cc3)o2)cc1 | SN12C renal | 99 |
| O=c1c2cccc(F)c2sc2c(NCCCNCCO)nc3ccccc3c12 | SN12C renal | 43.5 |
| O=C(Nc1ccc(OS(=O)(=O)c2ccc(F)cc2)cc1)c1ccc(Cl)cc1 | SN12C renal | 95.7 |
| COc1cc2cc(Oc3ccc(NC(=O)Nc4ccc(F)c(C(F)(F)F)c4)cc3)c(C)nc2cc1OCCN1CCOCC1 | SN12C renal | 11.6 |
| COc1cc(C(=O)c2cc(C)c3[nH]c4ccc(C)cc4c3c2C)cc(OC)c1OC | SN12C renal | 22.5 |
| OC(c1ccccc1)C(NC(Cc1ccccc1)c1ccccc1)c1ccccc1 (centres undefined) | SN12C renal | 87.1 |

====

Catalogue of compounds with associated growth
Tested on: OVCAR-4 ovarian
Test: NCI-60 one-dose screen, 48 h (100 = growth as untreated, 0 = no growth, -100 = all killed)
Settings: 10 µM unless noted
The panel holds about 83,000 compounds, 20% with a hit somewhere; the sample as a whole holds those more often.

| compound | growth, % |
| --- | --- |
| CCOC(=O)c1cn2ncnc(Oc3ccc(NC(=O)NCCN4CCOCC4)c(Cl)c3)c2c1C | 96.3 |
| COc1ccc(-c2[nH]ncc2-c2cc3c(c(OC)c2)OCC(=O)N3)cc1 | 54.4 |
| COc1ccc(/C=N/Nc2cc(=O)[nH]c3ccc(C)cc23)cc1 | 109 |
| CNC(C)[C@H]1CCC2C3CCC4C[C@@H](N(C)C(=O)c5ccccc5)CC[C@]4(C)C3CC[C@@]21C (stereo not given in full) | -5.3 |
| CN(C)CCN1CCN(c2ncccc2C2Nc3ccccc3-n3cccc32)CC1 (stereo not given) | 113 |

====

Tested on: EKVX NSCLC
Test: NCI-60 one-dose screen, 48 h (100 = growth as untreated, 0 = no growth, -100 = all killed)
Conditions: 10 µM unless noted
Procedure: Growth inhibition of the EKVX human Non-Small Cell Lung tumor cell line is measured as a screen for anti-cancer activity. Cells are grown in 96 well plates and exposed to the test compound for 48 hours. Compounds are tested at a single concentration, which is 10^-5 M for most compounds. The reported endpoint is percent growth (GI% or GIPRCNT), where numbers from 0 - 100% represent growth inhibition, and numbers from -100% - 0 represent cell death. […]
Compounds without any hit were thinned out: in the full panel of roughly 83,000, 20% have a hit. Activity calls are given as the source filed them. The calls were made as follows: active = growth percent below 10; inactive = the rest.

| compound | assayedSystem | growth |
| --- | --- | --- |
| BrCCCc1n(Cc2ccc3ccccc3c2)c2ccccc2[n+]1Cc1ccc2ccccc2c1 | EKVX NSCLC | -10.7% (active) |
| COc1ccc(NC(=O)n2nc(/C=C\c3ccc(O)c(OC)c3)cc2/C=C\c2ccc(O)c(OC)c2)cc1 | EKVX NSCLC | 52.4% (inactive) |
| COC1=C(C)C(=O)c2c(c(CCCl)c3n2CCC3O)C1=O (centres undefined) | EKVX NSCLC | 13.6% (inactive) |
| Cc1ccc(C2CC(c3ccc(Nc4ccnc5cc(Cl)ccc45)cc3)=NN2C=O)cc1 (centres undefined) | EKVX NSCLC | 50.1% (inactive) |
| CCOC(=O)c1c(C)oc2ncnc(N3CCN(C(=O)COc4ccc(C(C)(C)C)cc4)CC3)c12 | EKVX NSCLC | 74% (inactive) |
| COc1c(C2CC(=O)Nc3c2c(C)nn3-c2nc3ccccc3[nH]2)cc2c(c1OC)OCO2 (centres undefined) | EKVX NSCLC | 58% (inactive) |
| C[C@]12CC[C@@H]3c4cc(OC(F)F)c(OS(N)(=O)=O)cc4CC[C@H]3[C@@H]1CC[C@@H]2OS(N)(=O)=O | EKVX NSCLC | 19% (inactive) |
| O=C(N/N=C/c1c(Cl)cccc1Cl)c1ccc(C(F)(F)F)nc1Nc1cccc(C(F)(F)F)c1 | EKVX NSCLC | 16.9% (inactive) |
| COc1ccc(/C=C(\C#N)n2nnc3c(F)cccc32)cc1 | EKVX NSCLC | 32.3% (inactive) |
